# Target entity: Protein cereblon/Tyrosine-protein kinase BTK (Homo sapiens, UniProt Q06187+Q96SW2)
# Sequence (Q06187 2-659 limits assumed): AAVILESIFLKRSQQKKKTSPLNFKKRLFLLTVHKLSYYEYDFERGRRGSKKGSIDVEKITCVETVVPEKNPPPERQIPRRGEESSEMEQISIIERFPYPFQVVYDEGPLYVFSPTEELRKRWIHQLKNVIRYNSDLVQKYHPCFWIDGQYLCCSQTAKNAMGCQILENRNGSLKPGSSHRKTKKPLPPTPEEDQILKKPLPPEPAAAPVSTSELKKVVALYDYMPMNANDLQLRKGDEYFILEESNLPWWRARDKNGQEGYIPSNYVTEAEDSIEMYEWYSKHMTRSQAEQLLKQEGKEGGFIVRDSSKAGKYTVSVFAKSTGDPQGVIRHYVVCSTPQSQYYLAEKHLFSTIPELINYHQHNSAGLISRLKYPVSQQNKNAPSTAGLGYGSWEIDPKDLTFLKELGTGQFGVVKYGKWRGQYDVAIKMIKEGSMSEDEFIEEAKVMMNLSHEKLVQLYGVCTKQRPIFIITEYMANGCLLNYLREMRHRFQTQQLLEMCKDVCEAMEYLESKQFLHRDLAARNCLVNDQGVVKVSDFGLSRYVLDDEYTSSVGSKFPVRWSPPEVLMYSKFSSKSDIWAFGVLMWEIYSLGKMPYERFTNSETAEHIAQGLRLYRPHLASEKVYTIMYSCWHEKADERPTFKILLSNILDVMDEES
# Sequence (Q96SW2 whole entry partner): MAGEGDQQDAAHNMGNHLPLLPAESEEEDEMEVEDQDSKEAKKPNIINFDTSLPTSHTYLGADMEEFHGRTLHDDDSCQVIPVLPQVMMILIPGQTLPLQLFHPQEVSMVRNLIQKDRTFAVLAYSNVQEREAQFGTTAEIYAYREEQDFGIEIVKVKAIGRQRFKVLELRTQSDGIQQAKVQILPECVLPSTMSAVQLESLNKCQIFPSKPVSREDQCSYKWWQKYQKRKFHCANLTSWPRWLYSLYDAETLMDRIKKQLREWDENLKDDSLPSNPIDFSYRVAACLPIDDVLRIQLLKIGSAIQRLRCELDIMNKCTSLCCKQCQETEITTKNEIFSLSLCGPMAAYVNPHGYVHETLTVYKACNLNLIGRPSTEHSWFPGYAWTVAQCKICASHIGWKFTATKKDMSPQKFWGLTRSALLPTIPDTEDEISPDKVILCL
# Test: PROTAC activity at BTK/CRBN in human MINO cells assessed as BTK protein degradation at 20 nM measured after 24 hrs by Western blotting analysis relative to control
# Format: cell-based
Observable: Activity (%)

Use the examples below as a reference point.
• Cc1cc(-c2nc(Nc3ccn(C4CN(CC5CCN(c6ccc7c(c6)C(=O)N(C6CCC(=O)NC6=O)C7=O)CC5)C4)n3)ncc2F)ccc1CNC(=O)c1cnc(C(C)(C)C)s1 (stereo not given) = 75
• Cc1cc(-c2nc(Nc3ccn(C4CCN(CC5CCN(c6ccc7c(c6)C(=O)N(C6CCC(=O)NC6=O)C7=O)CC5)CC4)n3)ncc2F)ccc1CNC(=O)c1nc(C(C)(C)C)no1 (stereo not given) = 99
• Cc1cc(-c2nc(Nc3ccn(C4CCN(CC5CCN(c6ccc7c(c6)C(=O)N(C6CCC(=O)NC6=O)C7=O)CC5)CC4)n3)ncc2F)ccc1CNC(=O)c1cnc(C(C)(C)C)s1 (stereo not given) = 0
• Cc1cc(-c2nc(Nc3ccn(C4CN(CC5CCN(c6ccc7c(c6)C(=O)N(C6CCC(=O)NC6=O)C7=O)CC5)C4)n3)ncc2F)ccc1CNC(=O)c1cn(C2CC2)nn1 (stereo not given) = 92
• Cc1cc(-c2nc(Nc3cnn(C4CN(CC5CCN(c6ccc7c(c6)C(=O)N(C6CCC(=O)NC6=O)C7=O)CC5)C4)c3)ncc2F)ccc1CNC(=O)c1ccc(C(C)(C)C)cc1 (stereo not given) = 0
• NC(=O)c1ncc(N2CCCCC2)nc1Nc1ccc(C2CCN(C[C@@H]3CCN(c4ccc5c(c4)C(=O)N(C4CCC(=O)NC4=O)C5=O)C3)CC2)cc1 (stereo not given in full) = 96
• Cc1cc(-c2nc(Nc3ccn(C4CCN(CC5CCN(c6ccc7c(c6)C(=O)N(C6CCC(=O)NC6=O)C7=O)CC5)CC4)n3)ncc2F)ccc1CNC(=O)c1noc(C(C)(C)C)n1 (stereo not given) = 98
• Cc1cc(-c2nc(Nc3ccn(C4CN(CC5CCN(c6ccc7c(c6)C(=O)N(C6CCC(=O)NC6=O)C7=O)CC5)C4)n3)ncc2F)ccc1CNC(=O)c1nc(C(C)(C)C)no1 (stereo not given) = 96

I: Cc1cc(-c2nc(Nc3cnn(C4CCN(CC5CCN(c6ccc7c(c6)C(=O)N(C6CCC(=O)NC6=O)C7=O)CC5)CC4)c3)ncc2F)ccc1CNC(=O)c1cn(C(C)(C)C)nn1 (stereo not given)
II: Cc1cc(-c2nc(Nc3cnn(C4CCN(CC5CCN(c6ccc7c(c6)C(=O)N(C6CCC(=O)NC6=O)C7=O)CC5)CC4)c3)ncc2F)ccc1CNC(=O)c1ccc(C(C)(C)C)cc1 (stereo not given)
Query: # query: argmin of Activity over I and II Refer to your chosen entry by its label in the reply.
Reply: II
(II: 0%, I: 99%)
